Entries and their relative binding capacity (100-%n, DMSO subtracted) values follow.
# ASSAY_SYSTEM: T1, PKC-α (purified isoform) (Homo sapiens (Human), UniProt P17252 2-672)
# T1 construct: also called purified PKC-alpha; commercially purified PKC-alpha
# ASSAY_EXPLANATION: competitive ELISA, coated purified PKC-α, vs anti-PKC α (SC-208); PRE 50 µM
ENDPOINT_LABEL: relative binding capacity (100-%n, DMSO subtracted) (%)

[[record]]
binder = "Ac-KDAQNLIGISI-NH2 (also called peptide PRE 4) [PRE 4]"
result_units = "%"
numeric_result = 6.46

[[record]]
binder = "Ac-KDAQNLI-NH2 (Ac-KDAQNLI-NH2; also called peptide PRE 12) [PRE 12]"
result_units = "%"
numeric_result = 3.29

[[record]]
binder = "Ac-RDAQNLIGISI-NH2 (also called peptide PRE 11) [PRE 11]"
result_units = "%"
numeric_result = 0

[[record]]
binder = "Ac-AKGIQEVKGGDAQNLIGISI-NH2 (also called peptide PRE 3) [PRE 3]"
result_units = "%"
numeric_result = 17.5

[[record]]
binder = "Ac-ISIGILQNADK-NH2 (also called peptide PRE 7) [PRE 7]"
result_units = "%"
numeric_result = 0

[[record]]
binder = "Ac-KDANQLIGISI-NH2 (also called peptide PRE 6) [PRE 6]"
result_units = "%"
numeric_result = 0

[[record]]
binder = "ILEDKGGDAQNLIGISI (also called peptide PRE 8) [PRE 8]"
result_units = "%"
numeric_result = 0

[[record]]
binder = "Ac-ISIGILNQADK-NH2 (also called peptide PRE 10) [PRE 10]"
result_units = "%"
numeric_result = 0

[[record]]
binder = "Ac-RDAQNLI-NH2 (Ac-RDAQNLI-NH2; also called peptide PRE 13) [PRE 13]"
result_units = "%"
numeric_result = 0

[[record]]
binder = "Ac-AKGIQEVKGGKDAQNLIGISI-NH2 (also called peptide PRE 5) [PRE 5]"
result_units = "%"
numeric_result = 0

[[record]]
binder = "RRKKGGKDFVVKR (also called peptide PRE 1; peptide recognition element 1) [PRE 1]"
result_units = "%"
numeric_result = 0.69

